Catalogue of binding signal values
Target: MBP-FoxP3dN (Mus musculus, UniProt Q99JB6 188-423)
Sequence: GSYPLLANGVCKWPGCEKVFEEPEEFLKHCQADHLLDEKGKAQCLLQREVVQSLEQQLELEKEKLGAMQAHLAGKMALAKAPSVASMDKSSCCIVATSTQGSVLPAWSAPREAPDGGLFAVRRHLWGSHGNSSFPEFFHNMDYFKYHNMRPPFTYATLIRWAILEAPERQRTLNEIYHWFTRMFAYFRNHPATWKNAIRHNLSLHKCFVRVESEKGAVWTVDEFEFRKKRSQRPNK
Experiment: PD-seq (MBP pull-down with sequencing); 20 mM Tris-HCl pH 7.5, 100 mM NaCl, 1.5 mM MgCl2, 0.4 uM protein, 0.1 uM dsDNA library, 30 min, room temperature, amylose pull-down; high values mean tight binding
Settings: protein: recombinant; tags: His6-MBP; chain copies: 2; dsDNA, one strand shown
In all, about 16,000 sequences were measured (“rpm ratio (pull-down/input)”: median about 0.5, highest 2% from about 5.5 on). The entries come from a sample that favours the highest values as a whole.
assay.metric: binding signal

>  <chain.sequence>
GATGATTGTTCTCCCAGCTGATGAATTCCGCATCTCGAGTAAACAAATTTTCCTAATCTTTCTGTTCAAGCGCCATCTAC

>  <assayed.system>
MBP-FoxP3dN (Mus musculus, UniProt Q99JB6 188-423)

>  <assay.metric>
binding signal

>  <reported.value>
6.95 RPM ratio (pull-down/input)

$$$$
>  <chain.sequence>
GATGATTGTTCTCCCAGCTGATGAATTTCCCGCATCGAGTAAACAAATTTTCCTAATCTTTCTGTTCAAGCGCCATCTAC

>  <assayed.system>
MBP-FoxP3dN (Mus musculus, UniProt Q99JB6 188-423)

>  <assay.metric>
binding signal

>  <reported.value>
0.913 RPM ratio (pull-down/input)

$$$$
>  <chain.sequence>
GATGATTGTTCTCCCAGCTGATGAATTTTCCGCATCGAGTAAACAAATTTTCCTAATCTTTCTGTTCAAGCGCCATCTAC

>  <assayed.system>
MBP-FoxP3dN (Mus musculus, UniProt Q99JB6 188-423)

>  <assay.metric>
binding signal

>  <reported.value>
1.07 RPM ratio (pull-down/input)

$$$$
>  <chain.sequence>
GATGATTGTTCTCCCAGCTGATGAATTTAGTGGGTCGAGTAAACAAATTTTCCTAATCTTTCTGTTCAAGCGCCATCTAC

>  <assayed.system>
MBP-FoxP3dN (Mus musculus, UniProt Q99JB6 188-423)

>  <assay.metric>
binding signal

>  <reported.value>
1.06 RPM ratio (pull-down/input)

$$$$

----------
Target: MBP-FoxP3dN (Mus musculus, UniProt Q99JB6 188-423)
Sequence: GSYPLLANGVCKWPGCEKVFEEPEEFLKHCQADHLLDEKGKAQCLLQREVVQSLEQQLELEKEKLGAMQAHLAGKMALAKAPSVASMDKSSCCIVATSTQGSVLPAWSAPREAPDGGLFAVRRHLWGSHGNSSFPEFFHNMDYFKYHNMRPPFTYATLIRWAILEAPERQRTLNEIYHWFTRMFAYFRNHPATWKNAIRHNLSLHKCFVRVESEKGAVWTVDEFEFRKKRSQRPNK
Test: PD-seq (MBP pull-down with sequencing); 20 mM Tris-HCl pH 7.5, 100 mM NaCl, 1.5 mM MgCl2, 0.4 uM protein, 0.1 uM dsDNA library, 30 min, room temperature, amylose pull-down; high values mean tight binding
Conditions: protein: recombinant; tags: His6-MBP; chain copies: 2; dsDNA, one strand shown
Whole data set: some 16,000 sequences, median “rpm ratio (pull-down/input)” near 0.5, cut for the highest 2% near 5.5. This excerpt belongs to a sample that is enriched for the highest values.
Catalogue of binding signal values

>  <chain.sequence>
GATGATTGTTCTCCCAGCTGATGAATTAGGAGGGTCGAGTAAACAAATTTTCCTAATCTTTCTGTTCAAGCGCCATCTAC

>  <binding signal>
0.318 RPM ratio (pull-down/input)

$$$$
>  <chain.sequence>
GATGATTGTTCTCCCAGCTGATGAATTTTGCGTGTCGAGTAAACAAATTTTCCTAATCTTTCTGTTCAAGCGCCATCTAC

>  <binding signal>
5.56 RPM ratio (pull-down/input)

$$$$
>  <chain.sequence>
GATGATTGTTCTCCCAGCTGATGAATTCCTTTGGTCGAGTAAACAAATTTTCCTAATCTTTCTGTTCAAGCGCCATCTAC

>  <binding signal>
0.395 RPM ratio (pull-down/input)

$$$$
>  <chain.sequence>
GATGATTGTTCTCCCAGCTGATGAATTAACACCTTCGAGTAAACAAATTTTCCTAATCTTTCTGTTCAAGCGCCATCTAC

>  <binding signal>
0.408 RPM ratio (pull-down/input)

$$$$

----------
Catalogue of binding signal values
Target: MBP-FoxP3dN (Mus musculus, UniProt Q99JB6 188-423)
Sequence: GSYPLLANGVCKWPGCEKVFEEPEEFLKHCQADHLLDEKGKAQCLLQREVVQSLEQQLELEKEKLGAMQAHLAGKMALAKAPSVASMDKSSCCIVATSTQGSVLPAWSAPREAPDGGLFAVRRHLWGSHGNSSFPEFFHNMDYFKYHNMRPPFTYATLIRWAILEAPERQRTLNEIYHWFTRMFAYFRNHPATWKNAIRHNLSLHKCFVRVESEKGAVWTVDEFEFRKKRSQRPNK
Experiment: PD-seq (MBP pull-down with sequencing); 20 mM Tris-HCl pH 7.5, 100 mM NaCl, 1.5 mM MgCl2, 0.4 uM protein, 0.1 uM dsDNA library, 30 min, room temperature, amylose pull-down; high values mean tight binding
Settings: protein: recombinant; tags: His6-MBP; chain copies: 2; dsDNA, one strand shown
The full ranking holds about 16,000 sequences; the median of “rpm ratio (pull-down/input)” is about 0.5, and the highest 2% start at about 5.5. Only a selection was taken, and the highest values are over-represented in it overall.
assay.metric: binding signal

>  <chain.sequence>
GATGATTGTTCTCCCAGCTGATGAATTTTATTGTTCGAGTAAACAAATTTTCCTAATCTTTCTGTTCAAGCGCCATCTAC

>  <reported.value>
6.02 RPM ratio (pull-down/input)

$$$$
>  <chain.sequence>
GATGATTGTTCTCCCAGCTGATGAATTCTTTTATTCGAGTAAACAAATTTTCCTAATCTTTCTGTTCAAGCGCCATCTAC

>  <reported.value>
0.35 RPM ratio (pull-down/input)

$$$$
>  <chain.sequence>
GATGATTGTTCTCCCAGCTGATGAATTGTAGGCGTCGAGTAAACAAATTTTCCTAATCTTTCTGTTCAAGCGCCATCTAC

>  <reported.value>
0.778 RPM ratio (pull-down/input)

$$$$
>  <chain.sequence>
GATGATTGTTCTCCCAGCTGATGAATTTATTTGTTCGAGTAAACAAATTTTCCTAATCTTTCTGTTCAAGCGCCATCTAC

>  <reported.value>
6.33 RPM ratio (pull-down/input)

$$$$

These entries and their values trace back to paper PMC12820563.
